The measured values listed here are drawn from ChEMBL document CHEMBL4414601.

- method-notes: Binding affinity to GSK3 in Plasmodium falciparum 3D7 blood stage extract incubated for 1 hr in presence of ATP-competitive kinase inhibitor by kinobeads based pull down assay
- particulars: read-out: Kd(app)
In this section we review reported Kd values for a set of compounds.
measured-attribute: Kd (nM)

item-smiles | value-observed
Cc1cc(Nc2nccc(-c3sc(C4CCNCC4)nc3-c3ccc(F)cc3)n2)ccn1 | 90
Fc1ccc(-c2nc(C3CCNCC3)sc2-c2ccnc(NCCN3CCSCC3)n2)cc1 | 5300

###

- target-under-test: Beta-2 adrenergic receptor (Homo sapiens)
- Sequence (P07550 whole entry): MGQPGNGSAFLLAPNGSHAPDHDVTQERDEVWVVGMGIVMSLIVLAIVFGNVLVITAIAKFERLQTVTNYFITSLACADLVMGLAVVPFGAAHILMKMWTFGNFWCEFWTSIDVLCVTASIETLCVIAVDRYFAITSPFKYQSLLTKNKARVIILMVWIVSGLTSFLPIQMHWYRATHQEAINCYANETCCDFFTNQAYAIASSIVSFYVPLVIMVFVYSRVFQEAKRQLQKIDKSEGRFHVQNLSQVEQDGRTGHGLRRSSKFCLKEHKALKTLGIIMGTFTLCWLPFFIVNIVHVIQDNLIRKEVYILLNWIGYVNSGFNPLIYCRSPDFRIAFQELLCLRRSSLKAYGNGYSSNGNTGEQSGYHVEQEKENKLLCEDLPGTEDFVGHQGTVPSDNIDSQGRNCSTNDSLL
pIC50: −log10 of the molar value.

item-smiles | pIC50
Cc1cc(Nc2nccc(-c3sc(C4CCNCC4)nc3-c3ccc(F)cc3)n2)ccn1 | < 4.00

###

- Test system: Plasmodium falciparum
- method-notes: Antiplasmodial activity against […] of Plasmodium falciparum NF54 assessed as reduction in female gametocytes activation preincubated for 48 hrs followed by gametocytes activation and measured after 24 hrs by fluorescence based automated inverted microscopic analysis
- Assay type: functional, organism-based
The reader will find reported EC50 values listed item by item below.

compound | units-symbol | comparison-operator | EC50
CN1CCC(C(=O)Nc2nc(-c3ccc(F)cc3)c(-c3ccnc(Nc4ccc(N5CCNCC5)cc4)n3)s2)CC1 | nM | = | 1310
C[C@H]1[C@H](OC(=O)CCC(=O)O)O[C@@H]2O[C@@]3(C)CC[C@H]4[C@H](C)CC[C@@H]1[C@@]24OO3 [ARTESUNATE] | nM | > | 10000
Fc1ccc(-c2nc(N3CCOCC3)sc2-c2ccnc(Nc3ccc(N4CCNCC4)cc3)n2)cc1 | nM | = | 1070
Nc1nc(-c2ccc(F)cc2)c(-c2ccnc(Nc3ccc(N4CCNCC4)cc3)n2)s1 | nM | = | 190
Cc1cc(Nc2nccc(-c3sc(C4CCNCC4)nc3-c3ccc(F)cc3)n2)ccn1 | nM | = | 400
CN1CCN(c2ccc(Nc3nccc(-c4sc(C5CCNCC5)nc4-c4ccc(F)cc4)n3)cc2)CC1 | nM | = | 300
OC(CNc1nccc(-c2sc(C3CCNCC3)nc2-c2ccc(F)cc2)n1)c1ccncc1 (centres undefined) | nM | = | 10600
CCc1nc(N)nc(N)c1-c1ccc(Cl)cc1 | nM | > | 10000
Fc1ccc(-c2nc(C3CCNCC3)sc2-c2ccnc(Nc3nncs3)n2)cc1 | nM | = | 380

###

- method-notes: Permeability of compound by PAMPA
Classes by Papp: bucket A (below 2 ×10⁻⁶ cm/s), bucket B (2 ×10⁻⁶ cm/s to below 20 ×10⁻⁶ cm/s), bucket C (20 ×10⁻⁶ cm/s or more)

molecule | classification
Fc1ccc(-c2nc(C3CCNCC3)sc2-c2ccnc(N3CCCC3)n2)cc1 | bucket C
Fc1ccc(-c2nc(C3CCNCC3)sc2-c2ccnc(N3CCC(N4CCOCC4)CC3)n2)cc1 | bucket C
CN1CCC(Nc2nccc(-c3sc(C4CCNCC4)nc3-c3ccc(F)cc3)n2)C1 (stereo not given) | bucket A
Cc1nnc(Nc2nccc(-c3sc(C4CCNCC4)nc3-c3ccc(F)cc3)n2)s1 | bucket B
Fc1ccc(-c2nc(C3CCNCC3)oc2-c2ccnc(Nc3ccncn3)n2)cc1 | bucket B
CN1CCC(C(=O)Nc2nc(-c3ccc(F)cc3)c(-c3ccnc(Nc4ccc(N5CCNCC5)cc4)n3)s2)CC1 | bucket A
OCCNc1nccc(-c2sc(C3CCNCC3)nc2-c2ccc(F)cc2)n1 | bucket A
Fc1ccc(-c2nc(C3CCNCC3)sc2-c2ccnc(Nc3ccn(C4CCNCC4)n3)n2)cc1 | bucket B
Cc1nc(Nc2nccc(-c3sc(C4CCNCC4)nc3-c3ccc(F)cc3)n2)ccc1F | bucket C
OC(CNc1nccc(-c2sc(C3CCNCC3)nc2-c2ccc(F)cc2)n1)c1ccncc1 (stereo not given) | bucket A
CN(C)C(CNc1nccc(-c2sc(C3CCNCC3)nc2-c2ccc(F)cc2)n1)C1CC1 (stereo not given) | bucket B
CCOc1nccc(Nc2nccc(-c3sc(C4CCNCC4)nc3-c3ccc(F)cc3)n2)n1 | bucket B
CN(C)CCNc1nccc(-c2sc(C3CCNCC3)nc2-c2ccc(F)cc2)n1 | bucket B
Cc1cc(Nc2nccc(-c3sc(C4CCNCC4)nc3CN3CCCCC3)n2)ccn1 | bucket A
CN1CCN(CCNc2nccc(-c3sc(C4CCNCC4)nc3-c3ccc(F)cc3)n2)CC1 | bucket A
CN1CCN(c2ccc(Nc3nccc(-c4sc(C5CCNCC5)nc4-c4ccc(F)cc4)n3)cc2)CC1 | bucket B
Cc1nccc(Nc2nccc(-c3sc(C4CCNCC4)nc3-c3ccc(F)cc3)n2)n1 | bucket B
Fc1ccc(-c2nc(C3CCNCC3)sc2-c2ccnc(NCCN3CCSCC3)n2)cc1 | bucket C

###

- target-under-test: Amine oxidase [flavin-containing] A (Homo sapiens, UniProt P21397)
- Sequence (P21397 whole entry): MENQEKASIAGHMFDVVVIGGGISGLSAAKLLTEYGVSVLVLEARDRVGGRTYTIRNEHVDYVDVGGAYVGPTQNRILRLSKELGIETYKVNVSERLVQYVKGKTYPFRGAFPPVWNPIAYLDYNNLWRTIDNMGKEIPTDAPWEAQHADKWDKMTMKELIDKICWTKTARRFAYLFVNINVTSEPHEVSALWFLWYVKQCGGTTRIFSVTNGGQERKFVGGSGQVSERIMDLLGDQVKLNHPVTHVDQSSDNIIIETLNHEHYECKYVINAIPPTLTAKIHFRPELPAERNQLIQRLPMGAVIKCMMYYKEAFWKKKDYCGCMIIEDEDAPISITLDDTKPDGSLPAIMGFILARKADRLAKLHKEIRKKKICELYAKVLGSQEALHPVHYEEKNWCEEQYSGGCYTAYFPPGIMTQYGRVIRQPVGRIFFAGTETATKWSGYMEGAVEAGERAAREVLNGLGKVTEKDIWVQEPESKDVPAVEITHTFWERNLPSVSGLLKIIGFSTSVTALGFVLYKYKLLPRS
pIC50: −log10 of the molar value.

item-smiles | pIC50
Cc1cc(Nc2nccc(-c3sc(C4CCNCC4)nc3-c3ccc(F)cc3)n2)ccn1 | < 4.00

###

- target-under-test: Voltage-gated potassium channel, IKs; KCNQ1(Kv7.1)/KCNE1(MinK) (Homo sapiens, UniProt P15382+P51787)
- Sequence (P51787 whole entry): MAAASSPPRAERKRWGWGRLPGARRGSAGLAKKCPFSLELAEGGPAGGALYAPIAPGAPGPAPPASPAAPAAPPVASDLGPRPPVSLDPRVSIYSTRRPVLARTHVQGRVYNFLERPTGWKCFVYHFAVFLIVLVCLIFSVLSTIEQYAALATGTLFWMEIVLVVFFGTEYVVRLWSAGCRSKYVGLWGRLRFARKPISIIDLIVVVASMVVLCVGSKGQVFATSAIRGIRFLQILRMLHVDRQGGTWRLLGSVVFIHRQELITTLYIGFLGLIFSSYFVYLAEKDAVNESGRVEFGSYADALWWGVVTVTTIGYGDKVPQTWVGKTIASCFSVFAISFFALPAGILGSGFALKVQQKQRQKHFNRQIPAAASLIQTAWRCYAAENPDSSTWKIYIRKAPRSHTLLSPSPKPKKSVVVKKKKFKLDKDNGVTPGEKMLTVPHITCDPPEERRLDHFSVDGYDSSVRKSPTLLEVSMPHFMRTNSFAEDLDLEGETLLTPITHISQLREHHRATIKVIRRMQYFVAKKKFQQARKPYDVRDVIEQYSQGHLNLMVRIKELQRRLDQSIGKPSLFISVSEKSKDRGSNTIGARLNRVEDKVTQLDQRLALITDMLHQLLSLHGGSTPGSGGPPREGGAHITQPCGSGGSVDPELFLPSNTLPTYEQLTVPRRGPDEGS
- method-notes: Inhibition of human KCNQ1/KCNE1

item-smiles | IC50
Cc1cc(Nc2nccc(-c3sc(C4CCNCC4)nc3-c3ccc(F)cc3)n2)ccn1 | > 25 µM

###

Attribute: CLH
- method-notes: Clearance in human liver microsomes at 0.5 uM measured up to 45 mins in presence of NADPH by HPLC-MS/MS analysis
- Assay type: ADME, Microsome

item-smiles | units-symbol | CLH
CN1CCN(c2ccc(Nc3nccc(-c4sc(C5CCNCC5)nc4-c4ccc(F)cc4)n3)cc2)CC1 | mL/min/g | 0.53
CN1CCC(c2nc(-c3ccc(F)c(NS(C)(=O)=O)c3)c(-c3ccnc(NCC4CC4)n3)s2)CC1 | mL/min/g | 0.49
Fc1ccc(-c2nc(C3CCNCC3)sc2-c2ccnc(Nc3nncs3)n2)cc1 | mL/min/g | 0.55

###

Measured CLH by item
- method-notes: Clearance in rat liver microsomes at 0.5 uM measured up to 45 mins in presence of NADPH by HPLC-MS/MS analysis
- Assay type: ADME, Microsome

compound | CLH
CN1CCN(c2ccc(Nc3nccc(-c4sc(C5CCNCC5)nc4-c4ccc(F)cc4)n3)cc2)CC1 | 1.27 mL/min/g
OC(CNc1nccc(-c2sc(C3CCNCC3)nc2-c2ccc(F)cc2)n1)c1ccncc1 (stereo not given) | 0.77 mL/min/g
Cc1cc(Nc2nccc(-c3sc(C4CCNCC4)nc3-c3ccc(F)cc3)n2)ccn1 | 0.87 mL/min/g
Fc1ccc(-c2nc(C3CCNCC3)sc2-c2ccnc(Nc3nncs3)n2)cc1 | 0.46 mL/min/g
CN1CCC(C(=O)Nc2nc(-c3ccc(F)cc3)c(-c3ccnc(Nc4ccc(N5CCNCC5)cc4)n3)s2)CC1 | 0.46 mL/min/g

###

Readings of chromatographic logD for the listed compounds
- method-notes: Lipophilicity, LogD of compound by reverse phase HPLC analysis
measured-attribute: chromatographic logD

item-smiles | value-observed
Cc1nccc(Nc2nccc(-c3sc(C4CCNCC4)nc3-c3ccc(F)cc3)n2)n1 | 2.43
Cc1csc(Nc2nccc(-c3sc(C4CCNCC4)nc3-c3ccc(F)cc3)n2)n1 | 2.99
CN1CCN(CCNc2nccc(-c3sc(C4CCNCC4)nc3-c3ccc(F)cc3)n2)CC1 | 1.34
Oc1cc(Nc2nccc(-c3sc(C4CCNCC4)nc3-c3ccc(F)cc3)n2)ccn1 | 1.64
Cc1nc(Nc2nccc(-c3sc(C4CCNCC4)nc3-c3ccc(F)cc3)n2)ccc1F | 3.96

###

- target-under-test: Voltage-gated inwardly rectifying potassium channel KCNH2 (Homo sapiens)
- Sequence (Q12809 whole entry): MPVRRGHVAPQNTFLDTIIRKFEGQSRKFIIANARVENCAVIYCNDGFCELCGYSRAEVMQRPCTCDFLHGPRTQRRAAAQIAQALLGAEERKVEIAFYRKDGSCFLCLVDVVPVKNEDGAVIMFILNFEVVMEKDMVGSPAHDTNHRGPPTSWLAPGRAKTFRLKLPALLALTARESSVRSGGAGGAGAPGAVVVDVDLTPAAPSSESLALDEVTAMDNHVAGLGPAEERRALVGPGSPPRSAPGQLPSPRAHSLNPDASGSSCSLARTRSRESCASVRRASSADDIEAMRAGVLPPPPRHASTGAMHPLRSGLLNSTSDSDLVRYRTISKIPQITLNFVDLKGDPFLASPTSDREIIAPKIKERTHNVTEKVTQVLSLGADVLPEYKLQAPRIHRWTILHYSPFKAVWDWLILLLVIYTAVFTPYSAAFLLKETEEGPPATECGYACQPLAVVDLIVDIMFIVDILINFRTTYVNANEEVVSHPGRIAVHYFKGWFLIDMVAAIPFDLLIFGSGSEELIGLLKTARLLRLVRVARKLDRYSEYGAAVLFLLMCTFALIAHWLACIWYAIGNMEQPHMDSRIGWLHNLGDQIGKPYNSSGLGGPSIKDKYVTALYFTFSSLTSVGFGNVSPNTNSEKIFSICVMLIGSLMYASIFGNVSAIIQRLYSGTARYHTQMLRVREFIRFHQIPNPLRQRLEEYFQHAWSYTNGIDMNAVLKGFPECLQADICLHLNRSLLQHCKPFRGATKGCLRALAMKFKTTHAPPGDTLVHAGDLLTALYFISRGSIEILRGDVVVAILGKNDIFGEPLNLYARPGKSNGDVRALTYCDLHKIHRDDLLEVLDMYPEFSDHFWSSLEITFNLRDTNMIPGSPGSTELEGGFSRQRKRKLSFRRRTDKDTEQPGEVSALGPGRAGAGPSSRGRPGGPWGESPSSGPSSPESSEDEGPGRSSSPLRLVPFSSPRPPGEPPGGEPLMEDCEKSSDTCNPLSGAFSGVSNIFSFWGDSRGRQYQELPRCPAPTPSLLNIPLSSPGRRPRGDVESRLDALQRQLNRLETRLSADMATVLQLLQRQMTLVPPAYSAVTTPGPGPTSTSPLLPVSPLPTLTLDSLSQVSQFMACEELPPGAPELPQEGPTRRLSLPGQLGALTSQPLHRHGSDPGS
- method-notes: Inhibition of human ERG expressed in CHO cells by Q-patch clamp assay

compound | IC50
CN1CCN(c2ccc(Nc3nccc(-c4sc(C5CCNCC5)nc4-c4ccc(F)cc4)n3)cc2)CC1 | 13.2 µM
Nc1nc(-c2ccc(F)cc2)c(-c2ccnc(Nc3ccc(N4CCNCC4)cc3)n2)s1 | 35.5 µM
CN1CCC(c2nc(-c3ccc(F)c(NS(C)(=O)=O)c3)c(-c3ccnc(NCC4CC4)n3)s2)CC1 | 1.34 µM
OC(CNc1nccc(-c2sc(C3CCNCC3)nc2-c2ccc(F)cc2)n1)c1ccncc1 (stereo not given) | 28.2 µM
Fc1ccc(-c2nc(C3CCNCC3)sc2-c2ccnc(Nc3nncs3)n2)cc1 | 2.5 µM
